method: Pharmacokinetic assay in Wistar rats, oral
studyConditions: rat, plasma, 30 mg/kg
measuredAttribute: Cmax (ng/mL)

1) [2H]C([2H])([2H])C([2H])([2H])n1nccc1C(=O)N[C@H](C(=O)Nc1ncc([C@@H](CN2CCO[C@H](C)C2)N2CC(F)(F)CCC2=O)s1)[C@H]1CC[C@H](C)CC1 [Example 627] ... 2530
2) [2H]C([2H])([2H])C([2H])([2H])n1nccc1C(=O)N[C@H](C(=O)Nc1ncc([C@@H](CN2C[C@@H](C)O[C@H](C)C2)N2CC(F)(F)CCC2=O)s1)[C@H]1CC[C@H](C)CC1 [Example 857] ... 2290
3) [2H]C([2H])([2H])OC1(C)CCN(C[C@H](c2cnc(NC(=O)[C@@H](NC(=O)C3(F)CC3)[C@H]3CC[C@H](C)CC3)s2)N2CC(F)(F)CNC2=O)CC1 [Example 787] ... 2330
4) [2H]C([2H])([2H])C([2H])([2H])n1nccc1C(=O)NC(C(=O)Nc1ncc(C(COC)N2CC(F)(F)CCC2=O)s1)C1CCC(C)CC1 (centres unmarked) [Example 613] ... 3300
5) C[C@@H]1CN(C[C@H](c2cnc(NC(=O)[C@@H](NC(=O)C3(F)CC3)[C@H]3CC[C@H](C)CC3)s2)N2CC(F)(F)CNC2=O)[C@H](C)CO1 [Example 736] ... 1310
6) [2H]C1([2H])NC(=O)N([C@H](COC)c2cnc(NC(=O)[C@@H](NC(=O)OC3CC3)[C@H]3CC[C@H](C)CC3)s2)C([2H])([2H])C1(F)F [Example 559] ... 2190
7) C[C@H]1CC(F)(F)CCN1C[C@H](c1cnc(NC(=O)[C@@H](NC(=O)C2(F)CC2)[C@H]2CC[C@H](C)CC2)s1)N1CC(F)(F)CNC1=O [Example 764] ... 1090
8) CCc1nonc1C(=O)N[C@H](C(=O)Nc1ncc([C@@H](COC)N2CC(F)(F)CNC2=O)s1)[C@H]1CC[C@H](C)CC1 [Example 556] ... 2390
9) C[C@@H]1CN(C[C@H](c2cnc(NC(=O)[C@@H](NC(=O)C3(F)CC3)[C@H]3CC[C@H](C)CC3)s2)N2CC(F)(F)CNC2=O)[C@@H](C)CO1 [Example 731] ... 1840
10) [2H]C([2H])([2H])C([2H])([2H])n1nccc1C(=O)N[C@H](C(=O)Nc1ncc([C@@H](CN2CCOCC2)N2CC(F)(F)CCC2=O)s1)[C@H]1CC[C@H](C)CC1 [Example 624] ... 3400
11) CC1CCC(C(NC(=O)C2(F)CC2)C(=O)Nc2ncc(C(CN3C(C)COCC3C)N3CC(F)(F)CNC3=O)s2)CC1 (centres unmarked) [Example 739] ... 1940

###

Catalogue of Cmax values
method: Pharmacokinetic assay in Wistar rats, oral
studyConditions: rat, in vivo, 30 mg/kg
measuredAttribute: Cmax (ng/mL)

1) [2H]C([2H])([2H])C([2H])([2H])n1nccc1C(=O)N[C@H](C(=O)Nc1ncc([C@@H](CN2CCC(CF)CC2)N2CC(F)(F)CCC2=O)s1)[C@H]1CC[C@H](C)CC1 ... 2160
2) CCn1nccc1C(=O)N[C@H](C(=O)Nc1ncc([C@@H](CN2CCC(OC)CC2)N2CC(F)(F)CCC2=O)s1)[C@H]1CC[C@H](C)CC1 ... 3830
3) [2H]C([2H])([2H])O[C@@H]1CCN(C[C@H](c2cnc(NC(=O)[C@@H](NC(=O)c3ccnn3C([2H])([2H])C([2H])([2H])[2H])[C@H]3CC[C@H](C)CC3)s2)N2CC(F)(F)CCC2=O)C[C@@H]1F ... 2000
4) [2H]C([2H])([2H])OC1CCN(CC(c2cnc(NC(=O)C(NC(=O)c3ccnn3C([2H])([2H])C([2H])([2H])[2H])C3CCC(C)CC3)s2)N2CC(F)(F)CCC2=O)CC1F (stereo not shown) ... 4930
5) [2H]C([2H])([2H])C([2H])([2H])n1nccc1C(=O)N[C@H](C(=O)Nc1ncc([C@@H](CN2CCC(C(F)(F)F)CC2)N2CC(F)(F)CCC2=O)s1)[C@H]1CC[C@H](C)CC1 ... 1710
6) [2H]C([2H])([2H])C([2H])([2H])n1nccc1C(=O)NC(C(=O)Nc1ncc(C(CN2CCOCC2C)N2CC(F)(F)CCC2=O)s1)C1CCC(C)CC1 (stereo not shown) ... 2650
7) [2H]C([2H])([2H])C([2H])([2H])n1nccc1C(=O)NC(C(=O)Nc1ncc(C(COC)n2cc(Cl)ccc2=O)s1)C1CCC(C)CC1 (stereo not shown) ... 1750
8) C[C@H]1CC[C@H]([C@H](NC(=O)C2(F)CC2)C(=O)Nc2ncc([C@@H](CN3CCC(C(F)(F)F)CC3)N3CC(F)(F)CNC3=O)s2)CC1 ... 2310
9) [2H]C([2H])([2H])C([2H])([2H])n1nccc1C(=O)N[C@H](C(=O)Nc1ncc([C@@H](CN2CCOC[C@@H]2C)N2CC(F)(F)CCC2=O)s1)[C@H]1CC[C@H](C)CC1 ... 2540
10) [2H]C([2H])([2H])C([2H])([2H])n1nccc1C(=O)N[C@H](C(=O)Nc1ncc([C@@H](CN2CCC(C(F)F)CC2)N2CC(F)(F)CCC2=O)s1)[C@H]1CC[C@H](C)CC1 ... 1240
11) [2H]C([2H])([2H])C([2H])([2H])n1nccc1C(=O)N[C@H](C(=O)Nc1ncc([C@@H](CN2CCC3(CC2)CC3(F)F)N2CC(F)(F)CCC2=O)s1)[C@H]1CC[C@H](C)CC1 ... 1500
12) [2H]C([2H])([2H])C([2H])([2H])n1nccc1C(=O)N[C@H](C(=O)Nc1ncc([C@@H](CN2CCO[C@@H](C)C2)N2CC(F)(F)CCC2=O)s1)[C@H]1CC[C@H](C)CC1 ... 2270
13) [2H]C([2H])([2H])C([2H])([2H])n1nccc1C(=O)NC(C(=O)Nc1ncc(C(CN2CC(C)OCC2C)N2CC(F)(F)CCC2=O)s1)C1CCC(C)CC1 (stereo not shown) ... 1600

###

method: Pharmacokinetic assay in Wistar rats, oral
studyConditions: rat, plasma, 30 mg/kg
Classify: class 1 when half-life is strictly less than 200 min; class 0 when half-life is not.

1. C[C@@H]1CN(C[C@H](c2cnc(NC(=O)[C@@H](NC(=O)C3(F)CC3)[C@H]3CC[C@H](C)CC3)s2)N2CC(F)(F)CNC2=O)[C@H](C)CO1 ... class 1
2. C[C@@H]1CN(C[C@H](c2cnc(NC(=O)[C@@H](NC(=O)C3(F)CC3)[C@H]3CC[C@H](C)CC3)s2)N2CC(F)(F)CNC2=O)CCO1 ... class 1
3. C[C@H]1CC(F)(F)CCN1C[C@H](c1cnc(NC(=O)[C@@H](NC(=O)C2(F)CC2)[C@H]2CC[C@H](C)CC2)s1)N1CC(F)(F)CNC1=O ... class 0
4. [2H]C([2H])([2H])C([2H])([2H])n1nccc1C(=O)N[C@H](C(=O)Nc1ncc([C@@H](CN2C[C@@H](C)O[C@@H](C)C2)N2CC(F)(F)CCC2=O)s1)[C@H]1CC[C@H](C)CC1 ... class 1
5. C[C@H]1COCCN1C[C@H](c1cnc(NC(=O)[C@@H](NC(=O)C2(F)CC2)[C@H]2CC[C@H](C)CC2)s1)N1CC(F)(F)CNC1=O ... class 1
6. [2H]C([2H])([2H])OC1(C)CCN(C[C@H](c2cnc(NC(=O)[C@@H](NC(=O)C3(F)CC3)[C@H]3CC[C@H](C)CC3)s2)N2CC(F)(F)CNC2=O)CC1 ... class 1
7. [2H]C([2H])([2H])C([2H])([2H])n1nccc1C(=O)N[C@H](C(=O)Nc1ncc([C@@H](CN2CCOCC2)N2CC(F)(F)CCC2=O)s1)[C@H]1CC[C@H](C)CC1 ... class 1
8. [2H]C([2H])([2H])C([2H])([2H])n1nccc1C(=O)N[C@H](C(=O)Nc1ncc([C@@H](CN2C[C@H](C)O[C@@H](C)C2)N2CC(F)(F)CCC2=O)s1)[C@H]1CC[C@H](C)CC1 ... class 1
9. [2H]C([2H])([2H])C([2H])([2H])n1nccc1C(=O)NC(C(=O)Nc1ncc(C(COC)N2CC(F)(F)CCC2=O)s1)C1CCC(C)CC1 (centres unmarked) ... class 1
10. CCc1nonc1C(=O)N[C@H](C(=O)Nc1ncc([C@@H](COC)N2CC(F)(F)CNC2=O)s1)[C@H]1CC[C@H](C)CC1 ... class 1
11. [2H]C([2H])([2H])C([2H])([2H])n1nccc1C(=O)N[C@H](C(=O)Nc1ncc([C@@H](CN2CCO[C@H](C)C2)N2CC(F)(F)CCC2=O)s1)[C@H]1CC[C@H](C)CC1 ... class 1
12. C[C@@H]1CN(C[C@H](c2cnc(NC(=O)[C@@H](NC(=O)C3(F)CC3)[C@H]3CC[C@H](C)CC3)s2)N2CC(F)(F)CNC2=O)[C@@H](C)CO1 ... class 1
13. [2H]C([2H])([2H])C([2H])([2H])n1nccc1C(=O)N[C@H](C(=O)Nc1ncc([C@@H](CN2C[C@@H](C)O[C@H](C)C2)N2CC(F)(F)CCC2=O)s1)[C@H]1CC[C@H](C)CC1 ... class 0
14. [2H]C1([2H])NC(=O)N([C@H](COC)c2cnc(NC(=O)[C@@H](NC(=O)OC3CC3)[C@H]3CC[C@H](C)CC3)s2)C([2H])([2H])C1(F)F ... class 1
15. C[C@H]1CC[C@H]([C@H](NC(=O)C2(F)CC2)C(=O)Nc2ncc([C@@H](CN3CCC(C(F)F)CC3)N3CC(F)(F)CNC3=O)s2)CC1 ... class 0
16. CC1CCC(C(NC(=O)C2(F)CC2)C(=O)Nc2ncc(C(CN3C(C)COCC3C)N3CC(F)(F)CNC3=O)s2)CC1 (centres unmarked) ... class 1

Data provenance: patent EP4711365A1
